Ref: patent US6727264B1

- System name: rat MCH-1 (Rattus norvegicus)
- Test method notes: Radioligand binding assay at cloned rat MCH1 receptor ([3H] Compound A)
- Set-up: host or cells: Peak rapid 293 (Peakr293) cells, transient calcium phosphate transfection, membranes
- Conditions used: cloned rat MCH1 receptor; 0.08 nM [3H] Compound A; Peakr293 cell membranes; read-out: Ki (nM) rMCH1
Measure name: log10 Ki (log10 of the value in nM)
Friendly reminder: values = log10 of Ki, unit nM.

Before answering, review these 10 worked examples.
| Compound | log10 Ki |
| --- | --- |
| Cc1cccc2c(CCCN3CCC(c4cccc(NC(=O)C(C)C)c4)CC3)c(-c3cccc(I)c3)[nH]c12 | 0.61 |
| CC(C)C(=O)Nc1cccc(C2CCN(CCCCCC(O)c3ccc(F)cc3)CC2)c1 (stereo not shown) | 1.54 |
| Cc1ccc2[nH]c(-c3cccc(I)c3)c(CCCN3CCC(c4cccc(NC(=O)C(C)C)c4)CC3)c2c1 | 0.15 |
| CC(C)C(=O)Nc1cccc(C2CCN(Cc3cn(-c4ccc(Cl)cc4)c4ccccc34)CC2)c1 | 1.02 |
| CC(C)C(=O)Nc1cccc(C2CCN(CCCCC(O)c3ccc(F)cc3)CC2)c1 (stereo not shown) | 2.28 |
| CCC(=O)Nc1cccc(C2CCN(CCCCC(=O)c3ccccc3F)CC2)c1 | 1.85 |
| Cc1cccc(-n2ccc3c(CN4CCC(c5cccc(NC(=O)C(C)C)c5)CC4)cccc32)c1C | 2.39 |
| CC(C)C(=O)Nc1cccc(C2CCN(CCCCCCNC(=O)c3cc(C(C)(C)C)nn3Cc3ccccc3)CC2)c1 | 1.63 |
| O=C(CCCCN1CCC(c2cccc(NC(=O)C3CC3)c2)CC1)c1ccccc1Cl | 1.96 |
| CC(C)C(=O)Nc1cccc(C2CCN(CCCc3c(-c4ccccc4F)n(-c4ccccc4)c4ccccc34)CC2)c1 | 1.96 |

Please find the next compound below.
GET /value?item= Cc1noc(C)c1S(=O)(=O)N[C@@H](CCN1CCC(c2cccc(NC(=O)C(C)C)c2)CC1)c1ccccc1 &field=log10 Ki returns 1.65

###

- System name: rat MCH-1 (Rattus norvegicus, UniProt P97639)
- Sequence (P97639 whole entry): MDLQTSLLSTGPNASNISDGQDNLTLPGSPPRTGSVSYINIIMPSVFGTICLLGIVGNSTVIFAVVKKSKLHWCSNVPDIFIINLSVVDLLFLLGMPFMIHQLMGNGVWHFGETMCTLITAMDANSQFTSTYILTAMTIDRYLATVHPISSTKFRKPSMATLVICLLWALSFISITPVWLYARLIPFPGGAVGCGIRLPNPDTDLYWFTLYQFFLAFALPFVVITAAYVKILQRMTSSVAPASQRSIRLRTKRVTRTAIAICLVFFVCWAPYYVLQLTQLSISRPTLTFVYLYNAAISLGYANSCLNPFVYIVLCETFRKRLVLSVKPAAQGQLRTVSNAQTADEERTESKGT
- Test method notes: Radioligand binding assay at cloned rat MCH1 receptor ([3H] Compound A)
- Set-up: host or cells: Peak rapid 293 (Peakr293) cells, transient calcium phosphate transfection, membranes
- Conditions used: cloned rat MCH1 receptor, membranes from Peakr293 cells, 0.08 nM [3H] Compound A; read-out: Ki (nM) rMCH1
Hi! Just check whether Ki is below 40 nM. Below gives met, equal or above gives not met.

[Q] Strictly below 40 nM in Ki? CC(C)C(=O)Nc1cccc(C2CCN(Cc3c[nH]c(-c4ccccc4)n3)CC2)c1
[A] not met

[Q] Strictly below 40 nM in Ki? CC(C)C(=O)Nc1cccc(C2CCN(Cc3ccc(-n4cncn4)cc3)CC2)c1
[A] not met

[Q] Strictly below 40 nM in Ki? COc1cccc(OCCCCN2CCC(c3cccc(NC(=O)C(C)C)c3)CC2)c1
[A] not met

[Q] Strictly below 40 nM in Ki? CC(C)C(=O)Nc1cccc(C2CCN(CCC(Oc3cccc(Cl)c3)c3ccc(F)cc3)CC2)c1 (centres unmarked)
[A] met

[Q] Strictly below 40 nM in Ki? CC(C)C(=O)Nc1cccc(C2CCN(C[C@H](C)COc3cccc(F)c3)CC2)c1
[A] not met

[Q] Strictly below 40 nM in Ki? O=C(Nc1cccc(C2CCN(CC[C@@H](O)c3ccccc3)CC2)c1)C1CC1
[A] not met

[Q] Strictly below 40 nM in Ki? CC(C)C(=O)Nc1cccc(C2CCN(Cc3ccc(Oc4ccccc4)cc3)CC2)c1
[A] met

[Q] Strictly below 40 nM in Ki? CC(C)C(=O)Nc1cccc(C2CCN(CCCc3c(-c4ccccc4)n(C)c4ccccc34)CC2)c1
[A] met

[Q] Strictly below 40 nM in Ki? COc1ccc(Oc2ccc(CN3CCC(c4cccc(NC(=O)C(C)C)c4)CC3)cc2)cc1
[A] met

[Q] Strictly below 40 nM in Ki? CC(C)C(=O)Nc1cccc(C2CCN(C[C@@H](C)COc3ccccc3Cl)CC2)c1
[A] not met

[Q] Strictly below 40 nM in Ki? CC(C)C(=O)Nc1cccc(C2CCN(Cc3cccc(Oc4cc(Cl)cc(Cl)c4)c3)CC2)c1
[A] not met

[Q] Strictly below 40 nM in Ki? CC(C)C(=O)Nc1cccc(C2CCN(C[C@H](C)COc3ccccc3Br)CC2)c1
[A] not met

[Q] Strictly below 40 nM in Ki? CC(C)C(=O)Nc1cccc(C2CCN(CCCCCC(O)c3ccccc3)CC2)c1 (centres unmarked)
[A] met

[Q] Strictly below 40 nM in Ki? CC(C)C(=O)Nc1cccc(C2CCN(C[C@H](C)COc3ccc(Br)cc3)CC2)c1
[A] not met

[Q] Strictly below 40 nM in Ki? Cc1onc(-c2c(F)cccc2Cl)c1C(=O)OCCCCN1CCC(c2cccc(NC(=O)C(C)C)c2)CC1
[A] met

[Q] Strictly below 40 nM in Ki? CC(C)C(=O)Nc1cccc(C2CCN(CCC(Oc3ccccc3)c3ccc(F)cc3)CC2)c1 (centres unmarked)
[A] met
